B1: glmS ribozyme (parent)
chain: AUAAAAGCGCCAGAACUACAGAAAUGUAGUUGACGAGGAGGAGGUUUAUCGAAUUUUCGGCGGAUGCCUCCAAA

variants of: B1; test: self-cleavage kobs at 10000 uM GlcN6P; higher = faster cleavage; RNA array; conditions: with glucosamine-6-phosphate
This sample holds only a part of the variants without activity.
Parameter: self-cleavage kobs at 10000 uM GlcN6P (s⁻¹)
State just the number; it will be interpreted in s⁻¹.

Look at this variant and give its reported self-cleavage kobs at 10000 uM GlcN6P. C11U A53U 0.00125

Look at this variant and give its reported self-cleavage kobs at 10000 uM GlcN6P. G37A A53G A64G 0.00293

Look at this variant and give its reported self-cleavage kobs at 10000 uM GlcN6P. A15U A42U C67A 0.000127

Look at this variant and give its reported self-cleavage kobs at 10000 uM GlcN6P. U30G C70U 0.00516

Look at this variant and give its reported self-cleavage kobs at 10000 uM GlcN6P. A14G U47G C58G C71U 9.43e-05
